Where do these numbers come from? They come from PubChem BioAssay AID2060614.

tested on: 598228-144-R-J1-PDC complex spheroids, viability; test: Anticancer human tumor 598228-144-R-J1-PDC patient-derived serous endometrial adenocarcinoma cell line growth inhibition [CLK]; settings: second compound 1 µM; first compound 0.00316 µM; hits give low values
Each record here notes measured viability, T/C.
Provide the reading as a plain figure in %.

CCc1c2c(nc3ccc(O)cc13)-c1cc3c(c(=O)n1C2)COC(=O)[C@]3(O)CC + CNC(=O)c1ccc(Nc2nc(OC3CCCC3)c3c(-c4ccc5nc(C)oc5c4)c[nH]c3n2)c(OC)c1	117
CCN1CCN(Cc2ccc(Nc3ncc(F)c(-c4cc(F)c5nc(C)n(C(C)C)c5c4)n3)nc2)CC1 + CN1CCN(c2cc(C(=O)Nc3cc4cc(-c5cnn(C)c5)ccc4cn3)ccn2)CC1	1.42
COc1c(OCCCN2CCOCC2)ccc2c3n(c(=NC(=O)c4cnc(N)nc4)nc12)CCN3 + CN1CCN(c2cc(C(=O)Nc3cc4cc(-c5cnn(C)c5)ccc4cn3)ccn2)CC1	1.16
CCc1c2c(nc3ccc(O)cc13)-c1cc3c(c(=O)n1C2)COC(=O)[C@]3(O)CC + CN1CCN(c2cc(C(=O)Nc3cc4cc(-c5cnn(C)c5)ccc4cn3)ccn2)CC1	1.34

Field viability, T/C (entry Cn1ncnc1[C@H]1c2n[nH]c(=O)c3cc(F)cc(c23)N[C@@H]1c1ccc(F)cc1 + CN1CCN(c2cc(C(=O)Nc3cc4cc(-c5cnn(C)c5)ccc4cn3)ccn2)CC1 ) reads 1.72

Just so you know, measured viability, T/C for COc1c(OCCCN2CCOCC2)ccc2c3n(c(=NC(=O)c4cnc(N)nc4)nc12)CCN3 + CNC(=O)c1ccc(Nc2nc(OC3CCCC3)c3c(-c4ccc5nc(C)oc5c4)c[nH]c3n2)c(OC)c1 came out at 86.8

Value of measured viability, T/C for the entry CCN1CCN(Cc2ccc(Nc3ncc(F)c(-c4cc(F)c5nc(C)n(C(C)C)c5c4)n3)nc2)CC1 + CNC(=O)c1ccc(Nc2nc(OC3CCCC3)c3c(-c4ccc5nc(C)oc5c4)c[nH]c3n2)c(OC)c1 : 105

Please fill in: viability, T/C reported for Cn1ncnc1[C@H]1c2n[nH]c(=O)c3cc(F)cc(c23)N[C@@H]1c1ccc(F)cc1 + CNC(=O)c1ccc(Nc2nc(OC3CCCC3)c3c(-c4ccc5nc(C)oc5c4)c[nH]c3n2)c(OC)c1 = 107

----------
system: 598228-144-R-J1-PDC complex spheroids, viability; experiment: Anticancer human tumor 598228-144-R-J1-PDC cell line growth inhibition [CLK]; settings: second compound 0.1 µM; first compound 1 µM; hits give low values;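 also: spheroids exposed to compounds for seven days before readout; 100% = DMSO vehicle control wells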
RECORDED METRIC: viability, T/C (%)
All answers are understood in %, so give the number only.

Some solved cases for reference:
COc1cccc2c1C(=O)c1c(O)c3c(c(O)c1C2=O)CC(O)(C(=O)CO)CC3OC1CC(N)C(O)C(C)O1 (configuration not stated) + CN1CCN(c2cc(C(=O)Nc3cc4cc(-c5cnn(C)c5)ccc4cn3)ccn2)CC1	3.45
C=CC(=O)N1CCN(c2nc(=O)n(-c3c(C)ccnc3C(C)C)c3nc(-c4c(O)cccc4F)c(F)cc23)C(C)C1 (configuration not stated) + CN1CCN(c2cc(C(=O)Nc3cc4cc(-c5cnn(C)c5)ccc4cn3)ccn2)CC1	160
C=C(F)C(=O)N1CCN(c2nc(OCC3CCCN3C)nc3c2CCN(c2cccc4cccc(Cl)c24)C3)CC1CC#N (configuration not stated) + CN1CCN(c2cc(C(=O)Nc3cc4cc(-c5cnn(C)c5)ccc4cn3)ccn2)CC1	135
CC1COCCN1c1cc(C2(S(C)(=N)=O)CC2)nc(-c2ccnc3[nH]ccc23)n1 (configuration not stated) + CNC(=O)c1ccc(Nc2nc(OC3CCCC3)c3c(-c4ccc5nc(C)oc5c4)c[nH]c3n2)c(OC)c1	104
C=CC(=O)N1CCN(c2nc(=O)n(-c3c(C)ccnc3C(C)C)c3nc(-c4c(O)cccc4F)c(F)cc23)C(C)C1 (configuration not stated) + CNC(=O)c1ccc(Nc2nc(OC3CCCC3)c3c(-c4ccc5nc(C)oc5c4)c[nH]c3n2)c(OC)c1	114
COc1ccc([C@@H](O)c2cc(-c3ncnc4cc(N5CCOCC5)ccc34)c(F)cc2Cl)nn1 + CN1CCN(c2cc(C(=O)Nc3cc4cc(-c5cnn(C)c5)ccc4cn3)ccn2)CC1	88.8

Turning now to a further record.
Tested on 598228-144-R-J1-PDC complex spheroids, viability: CCc1c2c(nc3ccc(O)cc13)-c1cc3c(c(=O)n1C2)COC(=O)[C@]3(O)CC + CNC(=O)c1ccc(Nc2nc(OC3CCCC3)c3c(-c4ccc5nc(C)oc5c4)c[nH]c3n2)c(OC)c1 . Observed viability, T/C: 14.9
